- System under test: tankyrase 1 (Homo sapiens)
- Construct: purchased Trevigen 4700-096-K
- Sequence (O95271 whole entry): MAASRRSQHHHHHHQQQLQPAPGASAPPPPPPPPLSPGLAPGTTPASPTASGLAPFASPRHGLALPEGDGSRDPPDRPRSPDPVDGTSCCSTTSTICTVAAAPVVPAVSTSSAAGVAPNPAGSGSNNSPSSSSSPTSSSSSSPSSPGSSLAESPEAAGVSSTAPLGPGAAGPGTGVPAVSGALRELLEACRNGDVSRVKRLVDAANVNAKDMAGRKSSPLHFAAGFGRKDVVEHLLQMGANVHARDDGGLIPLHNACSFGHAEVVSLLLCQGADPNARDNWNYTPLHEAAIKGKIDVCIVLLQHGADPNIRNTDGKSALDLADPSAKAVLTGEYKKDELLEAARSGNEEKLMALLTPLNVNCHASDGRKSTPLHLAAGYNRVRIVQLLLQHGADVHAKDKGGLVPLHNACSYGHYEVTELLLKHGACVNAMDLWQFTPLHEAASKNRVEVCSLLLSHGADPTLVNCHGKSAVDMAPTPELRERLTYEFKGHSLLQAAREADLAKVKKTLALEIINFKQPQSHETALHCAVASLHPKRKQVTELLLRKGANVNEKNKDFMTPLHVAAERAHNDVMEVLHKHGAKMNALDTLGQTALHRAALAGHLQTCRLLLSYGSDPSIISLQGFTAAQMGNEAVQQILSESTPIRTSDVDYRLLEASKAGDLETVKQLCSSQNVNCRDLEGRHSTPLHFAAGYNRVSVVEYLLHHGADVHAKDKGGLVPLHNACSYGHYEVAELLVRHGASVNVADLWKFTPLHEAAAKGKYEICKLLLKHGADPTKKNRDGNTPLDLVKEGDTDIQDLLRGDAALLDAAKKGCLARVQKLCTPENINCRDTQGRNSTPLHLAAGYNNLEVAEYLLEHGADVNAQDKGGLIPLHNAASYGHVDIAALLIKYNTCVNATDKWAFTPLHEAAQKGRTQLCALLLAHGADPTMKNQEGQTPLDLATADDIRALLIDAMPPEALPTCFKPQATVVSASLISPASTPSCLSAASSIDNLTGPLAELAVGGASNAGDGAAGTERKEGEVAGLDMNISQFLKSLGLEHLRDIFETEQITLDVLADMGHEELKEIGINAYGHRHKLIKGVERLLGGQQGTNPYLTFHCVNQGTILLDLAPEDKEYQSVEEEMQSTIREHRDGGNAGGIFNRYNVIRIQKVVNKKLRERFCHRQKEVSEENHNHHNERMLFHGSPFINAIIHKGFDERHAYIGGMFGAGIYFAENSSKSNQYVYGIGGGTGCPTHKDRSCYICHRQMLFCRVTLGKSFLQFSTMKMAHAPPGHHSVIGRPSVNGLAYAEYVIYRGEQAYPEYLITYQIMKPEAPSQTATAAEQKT
- Method summary: Analysis of activity of tankyrase 1 (Trevigen kit, ELISA absorbance at 450 nm)
- Format: biochemical
- Condition label: tankyrase 1 enzyme, Trevigen kit Cat. No. 4700-096-K, 30 min at rt; read-out: TNKS1 (IC50)
Structures can show the parent of a compound that is named as a salt.
Please use Condition met for IC50 under 20 nM and Condition not met for everything else, ties included.

{"Molecule": "Cn1nnc(C2CCN(c3cc4c(nnn4C)c(=O)[nH]3)CC2)n1 [compound 66]", "Assigned label": "Condition not met"}
{"Molecule": "Cn1nnc2c(=O)[nH]c(N3CCN(c4c(F)cc(OCCN5CCC(N)CC5)cc4F)CC3)cc21 [compound 72]", "Assigned label": "Condition met"}
{"Molecule": "Cn1nnc2c(=O)[nH]c(N3CCN(c4c(F)cc(OCCO)cc4F)CC3)cc21 [compound 57]", "Assigned label": "Condition met"}
{"Molecule": "Cn1nnc2c(=O)[nH]c(N3CCC(c4nnn[nH]4)CC3)nc21 [compound 26]", "Assigned label": "Condition not met"}
{"Molecule": "Cn1nnc2c(=O)[nH]c(N3CCN(c4c(F)cc(OCC(O)CO)cc4F)CC3)nc21 (stereo not shown) [compound 12]", "Assigned label": "Condition met"}
{"Molecule": "Cn1nnc2c(=O)[nH]c(N3CCN(c4c(F)cc(OCCN)cc4F)CC3)nc21 [compound 37]", "Assigned label": "Condition not met"}
{"Molecule": "CN1CCN(CCOc2cc(F)c(N3CCN(c4cc5c(nnn5C)c(=O)[nH]4)CC3)c(F)c2)CC1 [compound 68]", "Assigned label": "Condition met"}
{"Molecule": "COC(C)c1cc(F)c(N2CCN(c3cc4c(nnn4C)c(=O)[nH]3)CC2)c(F)c1 (stereo not shown) [compound 64]", "Assigned label": "Condition not met"}
{"Molecule": "Cn1nnc2c(=O)[nH]c(N3CCN(c4c(F)cc(OCCN)cc4F)CC3)cc21 [compound 71]", "Assigned label": "Condition not met"}
{"Molecule": "Cn1nnc2c(=O)[nH]c(N3CCN(c4c(F)cc(CN5CCOCC5)cc4F)CC3)nc21 [compound 13]", "Assigned label": "Condition not met"}
{"Molecule": "CN1CCN(CCOc2cc(F)c(N3CCN(c4nc5c(nnn5C)c(=O)[nH]4)CC3)c(F)c2)CC1 [compound 32]", "Assigned label": "Condition not met"}
{"Molecule": "C[C@H](N)C(=O)OCCOc1cc(F)c(N2CCN(c3nc4c(nnn4C)c(=O)[nH]3)CC2)c(F)c1 [compound 11, hydrochloride]", "Assigned label": "Condition met"}
{"Molecule": "Cn1nnc2c(=O)[nH]c(N3CCN(c4c(F)cc(CN5CCOCC5)cc4F)CC3)cc21 [compound 60]", "Assigned label": "Condition not met"}
{"Molecule": "Cn1nnc2c(=O)[nH]c(N3CCN(c4c(F)cc(OCCN5CCCC5)cc4F)CC3)cc21 [compound 67]", "Assigned label": "Condition met"}
{"Molecule": "Cn1nnc2c(=O)[nH]c(N3CCN(c4c(F)cc(OCCN5CCC(N)CC5)cc4F)CC3)nc21 [compound 39]", "Assigned label": "Condition not met"}
{"Molecule": "Cn1nnc2c(=O)[nH]c(N3CCN(c4c(F)cc(OCCCCCC(=O)O)cc4F)CC3)nc21 [compound 19]", "Assigned label": "Condition not met"}
